Provide the reported inhibition at 10 µM of each item.
Biological target: human B1R (bradykinin receptor 1) (Homo sapiens)
Construct: expressed in transfected cells; host or cells: CHO K1 cells
Sequence (P46663 whole entry): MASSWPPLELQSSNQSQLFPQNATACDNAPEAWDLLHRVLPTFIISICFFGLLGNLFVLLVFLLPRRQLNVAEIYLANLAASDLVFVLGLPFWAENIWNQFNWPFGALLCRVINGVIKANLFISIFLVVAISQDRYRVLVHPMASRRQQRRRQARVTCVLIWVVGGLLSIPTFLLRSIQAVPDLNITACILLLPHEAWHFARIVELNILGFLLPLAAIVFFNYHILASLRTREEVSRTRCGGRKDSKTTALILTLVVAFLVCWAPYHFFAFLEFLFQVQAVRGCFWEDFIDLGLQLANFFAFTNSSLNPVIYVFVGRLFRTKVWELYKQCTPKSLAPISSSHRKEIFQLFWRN
Assay: FLIPR Ca2+ assay (Fluo-4) on CHO K1 cells stably transfected with the human B1R gene (hB1R cells): % inhibition at 10 μM / IC50, agonist Lys-Des-Arg9-bradykinin
Format: cell-based
Settings: CHO-K1, human B1R
Numeric answer only, unit % assumed.

Record O=C(N[C@@H]1CCc2ccc(C(=O)N3CCC4(CCN(c5ccncc5)CC4)C3)cc21)c1cc(Cl)ccc1Cl [Example H-98] : what is its inhibition at 10 µM with human B1R (bradykinin receptor 1) (Homo sapiens)?
100

Record O=C(N[C@@H]1CCCc2ccc(C(=O)N3CCC4(CCCN(c5ccncc5)C4)CC3)cc21)c1ccccc1Cl [Example H-80] : what is its inhibition at 10 µM with human B1R (bradykinin receptor 1) (Homo sapiens)?
57

Hello, I am looking for reported inhibition at 10 µM with human B1R (bradykinin receptor 1) (Homo sapiens) for O=C(NC1CCc2ccc(C(=O)N3CCC4(CCN(Cc5ccncc5)CC4)CC3)cc21)c1ccccc1Cl (stereo not shown) [Ind_CC-098] . Could you help?
34

Notebook entry, human B1R (bradykinin receptor 1) (Homo sapiens) assay: inhibition at 10 µM of CN(C(=O)c1ccc(F)cc1Cl)C1CCc2ccc(C(=O)N3CCC4(CC3)CCN(c3ccncc3)CC4)cc21 (stereo not shown) [IND_CC-261] = ?
100

Hello, I am looking for reported inhibition at 10 µM with human B1R (bradykinin receptor 1) (Homo sapiens) for O=C(N[C@@H]1CCOc2ccc(C(=O)N3CCC4(CC3)CCN(c3ccncc3)C4)cc21)c1ccccc1Cl [Example H-57] . Could you help?
99

Please provide the recorded inhibition at 10 µM for O=C(c1ccc2c(c1)[C@H](NS(=O)(=O)c1cccc(Cl)c1Cl)CC2)N1CCC2(CCN(c3ccncc3)CC2)C1 [Example H-113] , tested on human B1R (bradykinin receptor 1) (Homo sapiens).
99

I'm curious: which inhibition at 10 µM was measured for O=C(NC1CCc2ccc(C(=O)N3CCC4(CCN(c5ccncc5)CC4)C3)cc21)c1cccc(C(F)(F)F)c1Cl (stereo not shown) [IND_CC-255] tested on human B1R (bradykinin receptor 1) (Homo sapiens)?
100

---

Biological target: rat B1R (bradykinin receptor 1) (Rattus norvegicus, UniProt P97583)
Construct: expressed in transfected cells; host or cells: CHO K1 cells
Sequence (P97583 whole entry): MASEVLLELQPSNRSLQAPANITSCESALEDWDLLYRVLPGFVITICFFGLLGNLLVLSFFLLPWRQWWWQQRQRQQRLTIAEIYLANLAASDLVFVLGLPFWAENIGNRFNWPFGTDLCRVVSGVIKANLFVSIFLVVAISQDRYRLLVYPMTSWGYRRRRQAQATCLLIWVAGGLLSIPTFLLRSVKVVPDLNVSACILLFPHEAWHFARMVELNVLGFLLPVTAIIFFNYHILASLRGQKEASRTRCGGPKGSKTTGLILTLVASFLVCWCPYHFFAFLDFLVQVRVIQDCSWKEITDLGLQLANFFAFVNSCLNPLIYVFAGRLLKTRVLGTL
Test: FLIPR Ca2+ assay (Fluo-4) on CHO K1 cells stably transfected with the B1R gene of the rat (rB1R cells): % inhibition at 10 μM / IC50, agonist Des-Arg9-bradykinin
Assay type: cell-based
Details: CHO-K1, rat B1R
Source text: The agonistic or antagonistic action of substances can be quantified on the bradykinin receptor 1 (B1R) of the human and rat species with ectopically expressing cell lines (CHO K1 cells) and with the aid of a Ca^2+-sensitive dyestuff (Fluo-4) in a fluorescent imaging plate reader (FLIPR). […] The agonistic or antagonistic action of substances can be determined on the bradykinin receptor 1 (B1R) of the human and rat species with the following assay. […]
RESULT TYPE: inhibition at 10 µM (%)
# number only, unit % dropped from output

Look at this compound and give its reported inhibition at 10 µM. CN(C(=O)c1cc(Cl)ccc1Cl)C1CCc2ccc(C(=O)N3CCC4(CC3)CCN(c3ccncc3)CC4)cc21 (stereo not shown)
102

Tell me the measured inhibition at 10 µM of N#Cc1cccc(NC(=O)N2CCC3(CC2)CCN(C(=O)c2ccc4c(c2)C(NC(=O)c2ccccc2Cl)CC4)C3)c1 (stereo not shown) , please.
66

Quick one: inhibition at 10 µM of O=C(NC1CCc2ccc(C(=O)N3CCC4(CCN(Cc5csnn5)CC4)C3)cc21)c1cc(C(F)(F)F)ccc1Cl (stereo not shown) ?
51

inhibition at 10 µM lookup needed for Cc1noc(C)c1CN1CCC2(CC1)CCN(C(=O)c1ccc3c(c1)C(NC(=O)c1cc(C(F)(F)F)ccc1Cl)CC3)C2 (stereo not shown) , thanks.
66
